- TARGET OR SYSTEM: D(3) dopamine receptor (Rattus norvegicus, UniProt P19020)
- Sequence (P19020 whole entry): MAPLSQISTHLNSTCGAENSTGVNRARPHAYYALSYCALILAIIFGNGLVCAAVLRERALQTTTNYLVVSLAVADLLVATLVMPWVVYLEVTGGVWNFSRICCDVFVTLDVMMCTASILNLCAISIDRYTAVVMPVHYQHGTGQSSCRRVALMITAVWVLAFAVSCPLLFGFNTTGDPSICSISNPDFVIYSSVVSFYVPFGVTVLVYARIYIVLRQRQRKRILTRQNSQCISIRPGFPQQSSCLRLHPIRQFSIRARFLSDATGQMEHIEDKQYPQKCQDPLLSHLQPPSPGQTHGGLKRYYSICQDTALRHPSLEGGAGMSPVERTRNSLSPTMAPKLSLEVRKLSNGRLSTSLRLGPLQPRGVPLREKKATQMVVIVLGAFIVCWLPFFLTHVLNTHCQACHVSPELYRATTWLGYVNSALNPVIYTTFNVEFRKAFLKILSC
- ASSAY METHOD TEXT: biochemical
- Description: Binding affinity for rat striatum Dopamine receptor D3 (sf9 cells) by [3H]7-OH-DPAT displacement.
Please note: Ki exactly at 5 nM is 0. Only values below 5 nM get 1.

# count of solved cases: 6
[
  {
    "RECORD SMILES": "COc1ccccc1N1CCN(CCCCNC(=O)c2ccc3ccccc3n2)CC1",
    "CLASS": 1
  },
  {
    "RECORD SMILES": "COc1ccccc1N1CCN(CCCCNC(=O)c2nc3ccccc3n3cccc23)CC1",
    "CLASS": 0
  },
  {
    "RECORD SMILES": "N#Cc1ccc(N2CCN(CCCCNC(=O)c3cc4ccccc4o3)CC2)cc1",
    "CLASS": 0
  },
  {
    "RECORD SMILES": "COc1ccccc1N1CCN(CCCCNC(=O)c2cc3ccccc3[nH]2)CC1",
    "CLASS": 1
  },
  {
    "RECORD SMILES": "COc1ccccc1N1CCN(CCCCNC(=O)c2cnc3ccccc3n2)CC1",
    "CLASS": 0
  },
  {
    "RECORD SMILES": "COc1ccccc1N1CCN(CCCCNC(=O)c2cc3ccccc3cn2)CC1",
    "CLASS": 1
  }
]

Would you kindly verify if Ki of O=C(NCCCCN1CCN(c2ccc(Cl)c(Cl)c2)CC1)c1cc2ccccc2o1 is strictly less than 5 nM?
0

----------
- TARGET OR SYSTEM: D(2) dopamine receptor (Rattus norvegicus, UniProt P61169)
- Sequence (P61169 whole entry): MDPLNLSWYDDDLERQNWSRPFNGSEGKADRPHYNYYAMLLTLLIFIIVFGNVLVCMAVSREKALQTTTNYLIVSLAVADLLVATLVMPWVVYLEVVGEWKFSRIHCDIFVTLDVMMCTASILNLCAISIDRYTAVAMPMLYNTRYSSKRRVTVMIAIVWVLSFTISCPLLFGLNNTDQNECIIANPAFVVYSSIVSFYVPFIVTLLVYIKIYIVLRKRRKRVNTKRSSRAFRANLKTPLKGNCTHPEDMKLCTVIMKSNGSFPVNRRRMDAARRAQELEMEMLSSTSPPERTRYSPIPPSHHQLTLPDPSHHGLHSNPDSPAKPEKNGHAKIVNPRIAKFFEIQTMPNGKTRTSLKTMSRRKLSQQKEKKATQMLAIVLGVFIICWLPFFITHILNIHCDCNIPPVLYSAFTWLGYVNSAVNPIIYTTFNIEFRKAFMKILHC
- ASSAY METHOD TEXT: Binding affinity for rat striatum Dopamine receptor D2 by [3H]spiperone displacement.
MEASURED PROPERTY: pKi
# pKi: negative log10 of molar concentration; output just the value

Record O=C(NCCCCN1CCN(c2ccc(Cl)cc2Cl)CC1)c1cc2ccccc2o1 : what is its pKi with D(2) dopamine receptor (Rattus norvegicus, UniProt P61169)?
6.39

Record O=C(NCCCCN1CCN(c2ccc(Cl)cc2Cl)CC1)c1cc2ccccc2cn1 : what is its pKi with D(2) dopamine receptor (Rattus norvegicus, UniProt P61169)?
6.47

Record COc1ccccc1N1CCN(CCCCNC(=O)c2cc3ccccc3[nH]2)CC1 : what is its pKi with D(2) dopamine receptor (Rattus norvegicus, UniProt P61169)?
6.80

Record COc1ccccc1N1CCN(CCCCN2CCn3c(cc4ccccc43)C2=O)CC1 : what is its pKi with D(2) dopamine receptor (Rattus norvegicus, UniProt P61169)?
7.35

Record COc1ccccc1N1CCN(CC2CCN(C(=O)c3cc4ccccc4o3)CC2)CC1 : what is its pKi with D(2) dopamine receptor (Rattus norvegicus, UniProt P61169)?
6.61

Record COc1ccccc1N1CCN(CCNCc2coc(-c3cc4ccccc4o3)n2)CC1 : what is its pKi with D(2) dopamine receptor (Rattus norvegicus, UniProt P61169)?
6.29

Record O=C(NCCCCN1CCN(c2ccc(Cl)c(Cl)c2)CC1)c1cc2ccccc2o1 : what is its pKi with D(2) dopamine receptor (Rattus norvegicus, UniProt P61169)?
6.48

Record COc1ccccc1N1CCN(CCNCc2coc(-c3ccc4ccccc4c3)n2)CC1 : what is its pKi with D(2) dopamine receptor (Rattus norvegicus, UniProt P61169)?
7.07

Record COc1ccccc1N1CCN(CCCCNC(=O)c2cc3ccccc3cn2)CC1 : what is its pKi with D(2) dopamine receptor (Rattus norvegicus, UniProt P61169)?
7.12

Record COc1ccccc1N1CCN(CCCCNC(=O)c2cnc3ccccc3n2)CC1 : what is its pKi with D(2) dopamine receptor (Rattus norvegicus, UniProt P61169)?
7.08

Record COc1ccccc1N1CCN(CCCCNC(=O)c2ccc3ccccc3n2)CC1 : what is its pKi with D(2) dopamine receptor (Rattus norvegicus, UniProt P61169)?
7.08

Record COc1ccccc1N1CCN(CCCCNC(=O)c2nc3ccccc3n3cccc23)CC1 : what is its pKi with D(2) dopamine receptor (Rattus norvegicus, UniProt P61169)?
7.23
